Test system: protease according to SEQ ID NO: 3
experiment: Relative proteolytic activity with reversible inhibitor in liquid surfactant preparation (Example 1)
Type: biochemical
experimental_parameters: Table 2; benzylmalonic acid in amount inhibiting starting enzyme by 20-40%; 50% conc. surfactant preparation, 0.92 mM AAPF, 25° C., pH 8.6; relative to same protease without inhibitor
observable: relative activity, BMA (%)

[[record]]
molecule = "S166G: protease of SEQ ID NO: 3 with amino acid substitution S166G in the count according to SEQ ID NO: 1 (protein, listed as Bacillus lentus) AQSVPWGISRVQAPAAHNRGLTGSGVKVAVLDTGISTHPDLNIRGGASFVPGEPSTQDGNGHGTHVAGTIAALNNSIGVLGVAPSAELYAVKVLGADGEGAISSIAQGLEWAGNNGMHVANLSLGSPSPSATLEQAVNSATSRGVLVVAASGNSGASSIGYPARYANAMAVGATDQNNNRASFSQYGAGLDIVAPGVNVQSTYPGSTYASLNGTSMATPHVAGAAALVKQKNPSWSNVQIRNHLKNTATSLGSTNLYGSGLVNAEAATR"
observable = "relative activity, BMA"
reported = 80

[[record]]
molecule = "F189R: protease of SEQ ID NO: 3 with amino acid substitution F189R in the count according to SEQ ID NO: 1 (protein, listed as Bacillus lentus) AQSVPWGISRVQAPAAHNRGLTGSGVKVAVLDTGISTHPDLNIRGGASFVPGEPSTQDGNGHGTHVAGTIAALNNSIGVLGVAPSAELYAVKVLGADGEGAISSIAQGLEWAGNNGMHVANLSLGSPSPSATLEQAVNSATSRGVLVVAASGNSGASSISYPARYANAMAVGATDQNNNRASRSQYGAGLDIVAPGVNVQSTYPGSTYASLNGTSMATPHVAGAAALVKQKNPSWSNVQIRNHLKNTATSLGSTNLYGSGLVNAEAATR"
observable = "relative activity, BMA"
reported = 80

[[record]]
molecule = "A187D/F189R: protease of SEQ ID NO: 3 with amino acid substitutions A187D and F189R in the count according to SEQ ID NO: 1 (protein, listed as Bacillus lentus) AQSVPWGISRVQAPAAHNRGLTGSGVKVAVLDTGISTHPDLNIRGGASFVPGEPSTQDGNGHGTHVAGTIAALNNSIGVLGVAPSAELYAVKVLGADGEGAISSIAQGLEWAGNNGMHVANLSLGSPSPSATLEQAVNSATSRGVLVVAASGNSGASSISYPARYANAMAVGATDQNNNRDSRSQYGAGLDIVAPGVNVQSTYPGSTYASLNGTSMATPHVAGAAALVKQKNPSWSNVQIRNHLKNTATSLGSTNLYGSGLVNAEAATR"
observable = "relative activity, BMA"
reported = 43

[[record]]
molecule = "S166: protease according to SEQ ID NO: 3 used as the hydrolytic enzyme (starting enzyme) (protein, listed as Bacillus lentus) AQSVPWGISRVQAPAAHNRGLTGSGVKVAVLDTGISTHPDLNIRGGASFVPGEPSTQDGNGHGTHVAGTIAALNNSIGVLGVAPSAELYAVKVLGADGEGAISSIAQGLEWAGNNGMHVANLSLGSPSPSATLEQAVNSATSRGVLVVAASGNSGASSISYPARYANAMAVGATDQNNNRASFSQYGAGLDIVAPGVNVQSTYPGSTYASLNGTSMATPHVAGAAALVKQKNPSWSNVQIRNHLKNTATSLGSTNLYGSGLVNAEAATR"
observable = "relative activity, BMA"
reported = 81

[[record]]
molecule = "S166G/Q191R: protease of SEQ ID NO: 3 with amino acid substitutions S166G and Q191R in the count according to SEQ ID NO: 1 (protein, listed as Bacillus lentus) AQSVPWGISRVQAPAAHNRGLTGSGVKVAVLDTGISTHPDLNIRGGASFVPGEPSTQDGNGHGTHVAGTIAALNNSIGVLGVAPSAELYAVKVLGADGEGAISSIAQGLEWAGNNGMHVANLSLGSPSPSATLEQAVNSATSRGVLVVAASGNSGASSIGYPARYANAMAVGATDQNNNRASFSRYGAGLDIVAPGVNVQSTYPGSTYASLNGTSMATPHVAGAAALVKQKNPSWSNVQIRNHLKNTATSLGSTNLYGSGLVNAEAATR"
observable = "relative activity, BMA"
reported = 35

